Below is a list of entries, each paired with its recorded IC50 value.
target-of-assay: SOS1 (Homo sapiens, UniProt Q07889)
Sequence (Q07889 564-1049 limits assumed): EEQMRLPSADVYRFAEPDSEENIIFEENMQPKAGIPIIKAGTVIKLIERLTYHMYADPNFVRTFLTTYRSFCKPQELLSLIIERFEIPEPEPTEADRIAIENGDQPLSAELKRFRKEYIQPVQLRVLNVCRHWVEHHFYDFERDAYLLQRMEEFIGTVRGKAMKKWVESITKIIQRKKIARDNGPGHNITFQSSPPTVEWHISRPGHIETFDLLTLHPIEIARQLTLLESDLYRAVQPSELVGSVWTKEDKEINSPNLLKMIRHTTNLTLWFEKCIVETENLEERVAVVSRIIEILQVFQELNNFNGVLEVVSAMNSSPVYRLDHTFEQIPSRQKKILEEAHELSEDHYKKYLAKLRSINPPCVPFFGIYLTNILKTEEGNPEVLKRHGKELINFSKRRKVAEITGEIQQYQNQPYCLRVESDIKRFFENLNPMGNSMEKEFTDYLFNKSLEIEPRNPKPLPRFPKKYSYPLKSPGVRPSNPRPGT

C[C@@H](Nc1nc(Cl)nc2c1CN(C(=O)C1CCOC1)C2)c1cc(N)cc(C(F)(F)F)c1 (some centres unmarked)    < 1000 nM

Short answer for Cc1nc2c(c(N[C@H](C)c3cc(N)cc(C(F)(F)F)c3)n1)CN(C(=O)C1CCN(C)CC1)C2 : IC50 was < 1000 nM

Measured IC50, C[C@@H](Nc1ncnc2c1CN(C(=O)C1CCN(C)CC1)C2)c1cc(N)cc(C(F)(F)F)c1 : < 1000 nM

Sure, the documented IC50 for C[C@@H](Nc1nc(Cl)nc2c1CN([C@H]1CC[C@@H](C(=O)N(C)C)CC1)C2)c1cc(N)cc(C(F)(F)F)c1 is 1000 to 5000 nM

Entry C[C@@H](Nc1nc(Cl)nc2c1CN(C(=O)C1CCN(C)CC1)C2)c1cc(N)cc(C(F)(F)F)c1 ; IC50 = < 1000 nM

Sure, the documented IC50 for C[C@@H](Nc1nc(Cl)nc2c1CN(C(=O)N1CCOCC1)CC2)c1cc(N)cc(C(F)(F)F)c1 is < 1000 nM

Recorded result, C[C@@H](Nc1nc(Cl)nc2c1CCN(CC1CCOC1)CC2)c1cc(N)cc(C(F)(F)F)c1 (some centres unmarked) , IC50: 1000 to 5000 nM

molecule Cc1nc2c(c(N[C@H](C)c3cc(N)cc(C(F)(F)F)c3)n1)CN(C(=O)N1CCOCC1)CC2 , IC50 observed: 1000 to 5000 nM

###

System: PC-9 cells (EGFR Ex19Del)
assay-details: Potency Assay: pERK (SOS1 pERK IC50 Assay, AlphaLISA SureFire Ultra p-ERK1/2)
Assay type: cell-based
measurement-setup: Homo sapiens; PC-9 cells (EGFR Ex19Del), 1 hour incubation, AlphaLISA p-ERK1/2; read-out: SOS1 pERK IC50
property-measured: IC50

Check out these entries, answers already filled in.
C[C@@H](Nc1nc(Cl)nc2c1CN(C(=O)c1cnc3[nH]ccc3c1)C2)c1cc(N)cc(C(F)(F)F)c1 [Example 91]    < 1000 nM
COc1c(C(F)F)cccc1C(C)Nc1nc(Cl)nc2c1CN(C(=O)N1CCOCC1)C2 (stereo not shown) [Example 494]    > 1000 nM

The recorded IC50 for C[C@@H](Nc1nc(Cl)nc2c1CN(C(=O)N1CCOCC1)C2)c1cccc(C(F)(F)C(C)(C)O)c1F [Example 493] is < 1000 nM

Measured IC50, C[C@@H](Nc1nc(Cl)nc2c1CN(C(=O)C1(F)CN(C)C1)C2)c1cccc(C(F)F)c1F [Example 408] : < 1000 nM

###

Tested on: PC-9 cells (EGFR Ex19Del)
assay-details: Potency Assay: pERK (SOS1 pERK IC50 Assay, AlphaLISA SureFire Ultra p-ERK1/2)
Format: cell-based
measurement-setup: Homo sapiens; PC-9 cells (EGFR Ex19Del), 1 hour incubation, AlphaLISA p-ERK1/2; read-out: SOS1 pERK IC50
pIC50: −log10 of the molar value.
property-measured: pIC50

# pIC50 measured on PC-9 cells (EGFR Ex19Del) for item COc1nccc(C(=O)N2CCc3nc(Cl)nc(N[C@H](C)c4cc(N)cc(C(F)(F)F)c4)c3C2)n1 = < 6.00

# lookup: CC(O)c1cccc(C(C)Nc2ncnc3c2CN(C(=O)N2CCOCC2)C3)c1 (stereo not shown) on PC-9 cells (EGFR Ex19Del), pIC50 = < 6.00

GET /values?item= COC1(C(=O)N2Cc3nc(Cl)nc(N[C@H](C)c4cccc(C(F)F)c4F)c3C2)COC1 &system= PC-9 cells (EGFR Ex19Del) returns pIC50: > 6.00

PC-9 cells (EGFR Ex19Del) assay, compound C[C@@H](Nc1nc(Cl)nc2c1CN(S(=O)(=O)N1CCOCC1)C2)c1cc(N)cc(C(F)(F)F)c1 , recorded pIC50 = > 6.00

###

Test system: PC-9 cells (EGFR Ex19Del)
assay-details: Potency Assay: pERK (SOS1 pERK IC50 Assay, AlphaLISA SureFire Ultra p-ERK1/2)
Format: cell-based
measurement-setup: Homo sapiens; PC-9 cells (EGFR Ex19Del), 1 hour incubation, AlphaLISA p-ERK1/2; read-out: SOS1 pERK IC50
property-measured: IC50

Take a look at these entries with their results.
CCc1nc2c(c(N[C@H](C)c3cc(N)cc(C(F)(F)F)c3)n1)CN(C(=O)N1CCOCC1)C2    < 1000 nM
CC(Nc1nc(Cl)nc2c1CN(C(=O)N1CCOCC1)C2)c1cc(C(F)(F)F)ccn1 (stereo not shown)    > 1000 nM
C[C@@H](Nc1nc(Cl)nc2c1CN(S(=O)(=O)C1CCNCC1)C2)c1cc(N)cc(C(F)(F)F)c1    > 1000 nM
CC(=O)N1Cc2nc(C)nc(N[C@H](C)c3cc(N)cc(C(F)(F)F)c3)c2C1    > 1000 nM
C[C@@H](Nc1nc(Cl)nc2c1CN(C(=O)C1CNCCOC1)C2)c1cccc(C(F)F)c1F (stereo partly shown)    < 1000 nM
C[C@@H]1CN(C(=O)N2Cc3nc(Cl)nc(N[C@H](C)c4cc(N)cc(C(F)(F)F)c4)c3C2)C[C@H](C)N1    < 1000 nM

Measured IC50 of C[C@@H](Nc1nc(Cl)nc2c1CN(C(=O)[C@H]1CNCCO1)C2)c1cccc(C(F)(F)F)c1 : < 1000 nM

###

target-of-assay: SOS1 catalytic domain (residues 564-1049) (Homo sapiens, UniProt Q07889)
Sequence (Q07889 564-1049): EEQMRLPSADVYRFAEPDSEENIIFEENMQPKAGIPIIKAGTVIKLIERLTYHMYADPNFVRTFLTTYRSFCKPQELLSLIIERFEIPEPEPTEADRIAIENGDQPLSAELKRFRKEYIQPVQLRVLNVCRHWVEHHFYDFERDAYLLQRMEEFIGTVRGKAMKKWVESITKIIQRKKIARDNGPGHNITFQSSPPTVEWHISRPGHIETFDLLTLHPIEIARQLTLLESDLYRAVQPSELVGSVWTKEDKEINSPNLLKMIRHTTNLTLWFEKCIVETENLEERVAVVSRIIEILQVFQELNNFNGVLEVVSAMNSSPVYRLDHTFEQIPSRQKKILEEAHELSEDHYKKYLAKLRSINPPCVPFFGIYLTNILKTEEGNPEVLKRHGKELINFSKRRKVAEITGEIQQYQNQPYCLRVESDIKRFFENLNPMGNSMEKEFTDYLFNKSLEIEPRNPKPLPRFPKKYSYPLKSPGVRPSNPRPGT
property-measured: IC50

Cc1nc2c(c(N[C@H](C)c3cc(N)cc(C(F)(F)F)c3)n1)CN(c1ccc(Br)cn1)CC2    > 1000 nM
C[C@@H](Nc1nc(Cl)nc2c1CN(C(=O)C13CC(O)(C1)C3)CC2)c1cc(N)cc(C(F)(F)F)c1    > 1000 nM
CNc1nc2c(c(N[C@H](C)c3cccc(C(F)F)c3F)n1)CN(C(=O)N1CCOCC1)C2    > 1000 nM
C[C@@H](Nc1nc(CO)nc2c1CN(C(=O)N1CCOCC1)C2)c1cc(N)cc(C(F)(F)F)c1    < 1000 nM

Tested on SOS1 catalytic domain (residues 564-1049) (Homo sapiens, UniProt Q07889): COC1(C(=O)N2Cc3nc(Cl)nc(N[C@H](C)c4cc(N)cc(C(F)(F)F)c4)c3C2)CCOCC1 . Observed IC50: < 1000 nM

Reported SOS1 catalytic domain (residues 564-1049) (Homo sapiens, UniProt Q07889) IC50 for item C[C@@H](Nc1nc(Cl)nc2c1CN(C(=O)N1CCOCC1)C2)c1cccc(C(F)(F)C2CCCO2)c1 (stereo partly drawn) was < 1000 nM

Result for C[C@@H](Nc1nc(Cl)nc2c1CN(C(=O)c1cccc(Cl)n1)CC2)c1cc(N)cc(C(F)(F)F)c1 , tested on SOS1 catalytic domain (residues 564-1049) (Homo sapiens, UniProt Q07889), IC50: > 1000 nM

The molecule C[C@@H](Nc1nc(Cl)nc2c1CN(C(=O)C13OCCCC1C3(F)F)CC2)c1cc(N)cc(C(F)(F)F)c1 (stereo partly drawn) , tested on SOS1 catalytic domain (residues 564-1049) (Homo sapiens, UniProt Q07889), showed IC50 of > 1000 nM

The molecule C[C@@H](Nc1nc(Cl)nc2c1CN(C(=O)N1CCOCC1)C2)c1cccc(C(F)(F)C2CNCCO2)c1 (stereo partly drawn) , when measured on SOS1 catalytic domain (residues 564-1049) (Homo sapiens, UniProt Q07889), yielded IC50 of < 1000 nM
